Just for reference, patent US20090092595A1 is where these values come from.

# Tested Target: T1, soluble integrin αvβ3 (Homo sapiens, UniProt P05106+P06756)
# T1 construct: Recombinant soluble αvβ3 was synthesized as previously described; made in house
# T1 sequence (P06756 31-992 limits assumed): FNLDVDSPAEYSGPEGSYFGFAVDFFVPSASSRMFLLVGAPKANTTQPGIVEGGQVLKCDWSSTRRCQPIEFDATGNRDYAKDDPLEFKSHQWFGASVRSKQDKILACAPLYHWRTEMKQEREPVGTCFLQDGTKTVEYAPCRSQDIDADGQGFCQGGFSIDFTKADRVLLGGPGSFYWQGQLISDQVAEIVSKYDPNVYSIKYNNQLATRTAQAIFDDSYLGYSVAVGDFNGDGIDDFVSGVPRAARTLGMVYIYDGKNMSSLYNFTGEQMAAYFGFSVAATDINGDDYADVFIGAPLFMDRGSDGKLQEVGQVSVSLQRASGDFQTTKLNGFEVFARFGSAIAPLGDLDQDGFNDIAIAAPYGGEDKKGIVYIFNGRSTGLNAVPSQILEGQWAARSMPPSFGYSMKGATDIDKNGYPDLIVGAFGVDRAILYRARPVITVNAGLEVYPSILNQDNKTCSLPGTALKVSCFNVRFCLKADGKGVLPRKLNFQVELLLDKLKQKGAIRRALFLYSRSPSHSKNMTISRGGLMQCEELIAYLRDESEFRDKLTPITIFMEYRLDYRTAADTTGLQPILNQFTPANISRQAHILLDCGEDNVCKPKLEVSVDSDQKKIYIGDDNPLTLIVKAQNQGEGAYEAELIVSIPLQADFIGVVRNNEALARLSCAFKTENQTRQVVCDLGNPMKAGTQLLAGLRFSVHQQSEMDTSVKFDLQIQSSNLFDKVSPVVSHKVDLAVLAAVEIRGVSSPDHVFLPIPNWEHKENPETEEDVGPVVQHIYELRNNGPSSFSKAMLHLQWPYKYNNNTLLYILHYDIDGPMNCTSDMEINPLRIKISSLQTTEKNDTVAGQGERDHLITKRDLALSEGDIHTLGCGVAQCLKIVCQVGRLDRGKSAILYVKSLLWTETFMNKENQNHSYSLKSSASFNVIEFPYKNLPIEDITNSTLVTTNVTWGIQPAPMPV
# T1 sequence (P05106 27-718 limits assumed): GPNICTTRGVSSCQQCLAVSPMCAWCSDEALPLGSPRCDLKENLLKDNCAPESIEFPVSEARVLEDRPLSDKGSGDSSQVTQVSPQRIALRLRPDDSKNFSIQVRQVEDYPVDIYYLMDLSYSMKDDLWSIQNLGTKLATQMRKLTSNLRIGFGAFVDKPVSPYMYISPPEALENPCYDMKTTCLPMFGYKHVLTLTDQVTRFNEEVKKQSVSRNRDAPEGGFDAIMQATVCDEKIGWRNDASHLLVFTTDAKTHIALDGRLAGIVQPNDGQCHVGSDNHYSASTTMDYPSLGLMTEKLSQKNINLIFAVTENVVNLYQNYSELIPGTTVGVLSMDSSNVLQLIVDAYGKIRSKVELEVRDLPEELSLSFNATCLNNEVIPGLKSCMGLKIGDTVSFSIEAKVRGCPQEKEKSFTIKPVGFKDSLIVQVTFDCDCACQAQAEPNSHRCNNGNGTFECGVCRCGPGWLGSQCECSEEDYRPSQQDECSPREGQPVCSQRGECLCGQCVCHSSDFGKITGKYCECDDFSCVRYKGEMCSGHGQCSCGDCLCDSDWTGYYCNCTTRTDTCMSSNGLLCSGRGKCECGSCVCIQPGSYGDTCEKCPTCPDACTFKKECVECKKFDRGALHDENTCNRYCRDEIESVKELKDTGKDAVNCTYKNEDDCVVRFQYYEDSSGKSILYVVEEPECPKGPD
# Experimental Protocol: Binding of soluble αvβ3 to immobilized sPLA2-IIA (ELISA-type assay)
# Test Settings: immobilized protein, 20 μg/ml coating
Measurement Label: binding to soluble αvβ3

>  <Molecule>
wt sPLA2-IIA: Secretory phospholipase A2 group IIA, wild type, recombinant from bacteria BL21, refolded (protein, left off: small tags and cut ends) NLVNFHRMIKLTTGKEAALSYGFYGCHCGVGGRGSPKDATDRCCVTHDCCYKRLEKRGCGTKFLSYKFSNSGSRITCAKQDSCRSQLCECDKAAATCFARNKTTYNKKYQYYSNKHCRGSTPRC

>  <Measurement Label>
binding to soluble αvβ3

>  <Result>
bound

$$$$
